For each record, write down the corresponding EC50 (nM) measured by cAMP assay.
biological target: human GLP-1 receptor (GLP-1R) (human, UniProt P43220 24-463); assay: cell-based or functional assay
The reply should contain only the number, in nM.

Query :: For the binder shown here, GLP-1(A8G/G22E/R36S)-Fn8-COL18NC1-30 (ligand) HGEGTFTSDVSSYLEEQAAKEFIAWLVKGSGGGGSGGAVPPPTDLRFTNIGPDTMRVTWAPPPSIDLTNFLVRYSPVKNEEDVAELSISPSDNAVVLTNLLPGTEYVVSVSSVYEQHESTPLRGRQKTGGGGGSGGGGSASSASTGGPSGGGGSGGGGSGASSGVRLWATRQAMLGQVHEVPEGWLIFVAEQEELYVRVQNGFRKVQLEARTPLPRG , give the reported EC50 (nM) measured by cAMP assay.
Result :: 1.3

Query :: For the binder shown here, GLP-1(A8G/G22E)-Fn8-COL18NC1 (ligand) HGEGTFTSDVSSYLEEQAAKEFIAWLVKGRGGGGSGGGGSAVPPPTDLRFTNIGPDTMRVTWAPPPSIDLTNFLVRYSPVKNEEDVAELSISPSDNAVVLTNLLPGTEYVVSVSSVYEQHESTPLRGRQKTGGGGSGGGASSGVRLWATRQAMLGQVHEVPEGWLIFVAEQEELYVRVQNGFRKVQLEARTPLPRG , give the reported EC50 (nM) measured by cAMP assay.
Result :: 1.3

Query :: For the binder shown here, GLP-1(A8G/G22E/R36S)-Fn8-COL18NC1 (ligand) HGEGTFTSDVSSYLEEQAAKEFIAWLVKGSGGGGSGGGGSAVPPPTDLRFTNIGPDTMRVTWAPPPSIDLTNFLVRYSPVKNEEDVAELSISPSDNAVVLTNLLPGTEYVVSVSSVYEQHESTPLRGRQKTGGGGSGGGASSGVRLWATRQAMLGQVHEVPEGWLIFVAEQEELYVRVQNGFRKVQLEARTPLPRG , give the reported EC50 (nM) measured by cAMP assay.
Result :: 1.3

Query :: For the binder shown here, GLP-1(A8G/G22E/R36S)-Fn8-COL18NC1-20 (ligand) HGEGTFTSDVSSYLEEQAAKEFIAWLVKGSGGGGSGGAVPPPTDLRFTNIGPDTMRVTWAPPPSIDLTNFLVRYSPVKNEEDVAELSISPSDNAVVLTNLLPGTEYVVSVSSVYEQHESTPLRGRQKTGGGGGSGGGGSGGGGSGGGGSGASSGVRLWATRQAMLGQVHEVPEGWLIFVAEQEELYVRVQNGFRKVQLEARTPLPRG , give the reported EC50 (nM) measured by cAMP assay.
Result :: 1.4

Query :: For the binder shown here, GLP-1(A8V/G22E)-Fn8-COL18NC1 (ligand) HVEGTFTSDVSSYLEEQAAKEFIAWLVKGRGGGGSGGGGSAVPPPTDLRFTNIGPDTMRVTWAPPPSIDLTNFLVRYSPVKNEEDVAELSISPSDNAVVLTNLLPGTEYVVSVSSVYEQHESTPLRGRQKTGGGGSGGGASSGVRLWATRQAMLGQVHEVPEGWLIFVAEQEELYVRVQNGFRKVQLEARTPLPRG , give the reported EC50 (nM) measured by cAMP assay.
Result :: 1.3

Query :: For the binder shown here, GLP-1(A8G/G22E/R36G)-Fn8-COL18NC1 (ligand) HGEGTFTSDVSSYLEEQAAKEFIAWLVKGGGGGGSGGGGSAVPPPTDLRFTNIGPDTMRVTWAPPPSIDLTNFLVRYSPVKNEEDVAELSISPSDNAVVLTNLLPGTEYVVSVSSVYEQHESTPLRGRQKTGGGGSGGGASSGVRLWATRQAMLGQVHEVPEGWLIFVAEQEELYVRVQNGFRKVQLEARTPLPRG , give the reported EC50 (nM) measured by cAMP assay.
Result :: 1.2

Query :: For the binder shown here, GLP-1(A8G/G22E/R36S)-Fn8-COL18NC1-54 (ligand) HGEGTFTSDVSSYLEEQAAKEFIAWLVKGSGGGGSGGAVPPPTDLRFTNIGPDTMRVTWAPPPSIDLTNFLVRYSPVKNEEDVAELSISPSDNAVVLTNLLPGTEYVVSVSSVYEQHESTPLRGRQKTGGGGGSGGGGSTASSASTGGPSGGGGSGGGGSAPSSGSTSGGTAAGGGGSGGGGSGASSGVRLWATRQAMLGQVHEVPEGWLIFVAEQEELYVRVQNGFRKVQLEARTPLPRG , give the reported EC50 (nM) measured by cAMP assay.
Result :: 0.5

Query :: For the binder shown here, GLP-1-Fn7-COL18NC1 (ligand) HAEGTFTSDVSSYLEGQAAKEFIAWLVKGRGGGGSGGGGTPLSPPTNLHLEANPDTGVLTVSWERSTTPDITGYRITTTPTNGQQGNSLEEVVHADQSSCTFDNLSPGLEYNVSVYTVKDDKESVPISDTIIPAGGGSGGGASSGVRLWATRQAMLGQVHEVPEGWLIFVAEQEELYVRVQNGFRKVQLEARTPLPRG , give the reported EC50 (nM) measured by cAMP assay.
Result :: 2.2

Query :: For the binder shown here, GLP-1(A8G/G22E/R36S)-Fn8-COL18NC1-60 (ligand) HGEGTFTSDVSSYLEEQAAKEFIAWLVKGSGGGGSGGAVPPPTDLRFTNIGPDTMRVTWAPPPSIDLTNFLVRYSPVKNEEDVAELSISPSDNAVVLTNLLPGTEYVVSVSSVYEQHESTPLRGRQKTGGGGSGGGSGGGSTASSASTKGPSGGGSGGGSGGGSAPSSKSTSGGTAAGGGSGGGSGGGSGASSGVRLWATRQAMLGQVHEVPEGWLIFVAEQEELYVRVQNGFRKVQLEARTPLPRG , give the reported EC50 (nM) measured by cAMP assay.
Result :: 0.5

Query :: For the binder shown here, GLP-1(A8S/G22E)-Fn8-COL18NC1 (ligand) HSEGTFTSDVSSYLEEQAAKEFIAWLVKGRGGGGSGGGGSAVPPPTDLRFTNIGPDTMRVTWAPPPSIDLTNFLVRYSPVKNEEDVAELSISPSDNAVVLTNLLPGTEYVVSVSSVYEQHESTPLRGRQKTGGGGSGGGASSGVRLWATRQAMLGQVHEVPEGWLIFVAEQEELYVRVQNGFRKVQLEARTPLPRG , give the reported EC50 (nM) measured by cAMP assay.
Result :: 1.3

Query :: For the binder shown here, GLP-1-Fn8-COL18NC1 (ligand) HAEGTFTSDVSSYLEGQAAKEFIAWLVKGRGGGGSGGGGSAVPPPTDLRFTNIGPDTMRVTWAPPPSIDLTNFLVRYSPVKNEEDVAELSISPSDNAVVLTNLLPGTEYVVSVSSVYEQHESTPLRGRQKTGGGGSGGGASSGVRLWATRQAMLGQVHEVPEGWLIFVAEQEELYVRVQNGFRKVQLEARTPLPRG , give the reported EC50 (nM) measured by cAMP assay.
Result :: 2.1

Cited source: patent US10246503B2
